Measured inhibition at 8 µM, listed per entry for reference.
- system: SpNanA (sialidase) (Streptococcus pneumoniae, UniProt P62575)
- Construct: made in house
- Sequence (P62575 54-1006): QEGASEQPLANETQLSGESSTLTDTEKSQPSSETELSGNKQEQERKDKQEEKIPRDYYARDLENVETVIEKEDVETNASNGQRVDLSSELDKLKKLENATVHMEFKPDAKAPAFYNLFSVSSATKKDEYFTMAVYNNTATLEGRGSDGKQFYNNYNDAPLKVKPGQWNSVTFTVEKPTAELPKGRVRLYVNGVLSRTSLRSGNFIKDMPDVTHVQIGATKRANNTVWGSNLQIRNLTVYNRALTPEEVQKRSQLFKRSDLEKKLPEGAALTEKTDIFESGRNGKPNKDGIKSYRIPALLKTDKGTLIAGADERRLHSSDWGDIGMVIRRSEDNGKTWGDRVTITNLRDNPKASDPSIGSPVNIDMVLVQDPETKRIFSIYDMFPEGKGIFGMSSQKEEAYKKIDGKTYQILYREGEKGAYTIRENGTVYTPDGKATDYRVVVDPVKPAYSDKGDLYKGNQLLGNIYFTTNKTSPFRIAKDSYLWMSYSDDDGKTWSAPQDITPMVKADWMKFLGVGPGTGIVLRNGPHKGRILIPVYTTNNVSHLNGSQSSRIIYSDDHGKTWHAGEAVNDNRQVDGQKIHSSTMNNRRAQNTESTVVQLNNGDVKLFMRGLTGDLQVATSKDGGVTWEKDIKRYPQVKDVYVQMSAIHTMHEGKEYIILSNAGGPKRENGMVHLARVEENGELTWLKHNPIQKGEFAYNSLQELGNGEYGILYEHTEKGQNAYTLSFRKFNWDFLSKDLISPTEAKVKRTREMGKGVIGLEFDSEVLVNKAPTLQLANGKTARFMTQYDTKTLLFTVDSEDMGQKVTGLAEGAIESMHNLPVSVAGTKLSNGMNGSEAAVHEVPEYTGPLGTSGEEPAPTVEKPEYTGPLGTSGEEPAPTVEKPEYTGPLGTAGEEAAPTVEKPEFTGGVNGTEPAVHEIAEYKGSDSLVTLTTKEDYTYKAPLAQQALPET
- assay.procedure: Fluorescence-based inhibition assay (substrate Neu5Acα2-3GalβMU, β-galactosidase coupled)
- Type: biochemical
- condition: read-out: percent inhibition against SpNanA
measurement.type: inhibition at 8 µM (%)

[[record]]
molecule = "CC(=O)N[C@@H]1C(N)C[C@](OC2C(O)[C@H](Oc3ccc([N+](=O)[O-])cc3)OC(CO)[C@@H]2O)(C(=O)O)OC1[C@H](O)[C@H](O)CO (some centres unmarked) [4NH2Neu5Acα2-3GalβpNP]"
system = "SpNanA (sialidase) (Streptococcus pneumoniae, UniProt P62575)"
measurement_type = "inhibition at 8 µM"
unit_abbreviation = "%"
result = 9

[[record]]
molecule = "CC(=O)N[C@@H]1C(N)C[C@](OCC2O[C@@H](Oc3ccc([N+](=O)[O-])cc3)C(O)C(O)[C@H]2O)(C(=O)O)OC1[C@H](O)[C@H](O)CO (some centres unmarked) [4NH2Neu5Acα2-6GalβpNP]"
system = "SpNanA (sialidase) (Streptococcus pneumoniae, UniProt P62575)"
measurement_type = "inhibition at 8 µM"
unit_abbreviation = "%"
result = 4.4

[[record]]
molecule = "CC(=O)N[C@H]1[C@H]([C@H](O)[C@H](O)CO)O[C@@](O[C@H]2[C@@H](O)[C@@H](CO)O[C@@H](Oc3ccc([N+](=O)[O-])cc3)[C@@H]2O)(C(=O)O)C[C@@H]1OC(C)=O [Neu4,5Ac2α2-3GalβpNP, Neu4,5Acα2-3GalβpNP, reference compound]"
system = "SpNanA (sialidase) (Streptococcus pneumoniae, UniProt P62575)"
measurement_type = "inhibition at 8 µM"
unit_abbreviation = "%"
result = 2.8

[[record]]
molecule = "CC(=O)NC1C[C@](OCC2O[C@@H](Oc3ccc([N+](=O)[O-])cc3)C(O)C(O)[C@H]2O)(C(=O)O)OC([C@H](O)[C@H](O)CO)[C@@H]1NC(C)=O (some centres unmarked) [4NAcNeu5Acα2-6GalβpNP]"
system = "SpNanA (sialidase) (Streptococcus pneumoniae, UniProt P62575)"
measurement_type = "inhibition at 8 µM"
unit_abbreviation = "%"
result = 4.2

[[record]]
molecule = "CC(=O)N[C@@H]1C(O)C[C@](OCC2O[C@@H](Oc3ccc([N+](=O)[O-])cc3)C(O)C(O)[C@H]2O)(C(=O)O)OC1[C@H](O)[C@H](O)CO (some centres unmarked) [Neu5Acα2-6GalβpNP, reference compound]"
system = "SpNanA (sialidase) (Streptococcus pneumoniae, UniProt P62575)"
measurement_type = "inhibition at 8 µM"
unit_abbreviation = "%"
result = 5.8

[[record]]
molecule = "CC(=O)N[C@@H]1C(O)C[C@](OC2C(O)[C@H](Oc3ccc([N+](=O)[O-])cc3)OC(CO)[C@@H]2O)(C(=O)O)OC1[C@H](O)[C@H](O)CO (some centres unmarked) [Neu5Acα2-3GalβpNP, reference compound]"
system = "SpNanA (sialidase) (Streptococcus pneumoniae, UniProt P62575)"
measurement_type = "inhibition at 8 µM"
unit_abbreviation = "%"
result = 17.1

[[record]]
molecule = "CC(=O)N[C@@H]1C(N=[N+]=[N-])C[C@](OC2C(O)[C@H](Oc3ccc([N+](=O)[O-])cc3)OC(CO)[C@@H]2O)(C(=O)O)OC1[C@H](O)[C@H](O)CO (some centres unmarked) [4N3Neu5Acα2-3GalβpNP]"
system = "SpNanA (sialidase) (Streptococcus pneumoniae, UniProt P62575)"
measurement_type = "inhibition at 8 µM"
unit_abbreviation = "%"
result = 0.6

[[record]]
molecule = "CC(=O)N[C@H]1[C@H]([C@H](O)[C@H](O)CO)O[C@@](OC[C@H]2O[C@@H](Oc3ccc([N+](=O)[O-])cc3)[C@H](O)[C@@H](O)[C@H]2O)(C(=O)O)C[C@@H]1NC(=N)N [4-Guanidino-Neu5Acα2-6GalβpNP]"
system = "SpNanA (sialidase) (Streptococcus pneumoniae, UniProt P62575)"
measurement_type = "inhibition at 8 µM"
unit_abbreviation = "%"
result = 6.4

[[record]]
molecule = "CC(=O)N[C@@H]1C(N=[N+]=[N-])C[C@](OCC2O[C@@H](Oc3ccc([N+](=O)[O-])cc3)C(O)C(O)[C@H]2O)(C(=O)O)OC1[C@H](O)[C@H](O)CO (some centres unmarked) [4N3Neu5Acα2-6GalβpNP]"
system = "SpNanA (sialidase) (Streptococcus pneumoniae, UniProt P62575)"
measurement_type = "inhibition at 8 µM"
unit_abbreviation = "%"
result = 11.6

[[record]]
molecule = "CC(=O)NC1C[C@](OC2C(O)[C@H](Oc3ccc([N+](=O)[O-])cc3)OC(CO)[C@@H]2O)(C(=O)O)OC([C@H](O)[C@H](O)CO)[C@@H]1NC(C)=O (some centres unmarked) [4NAcNeu5Acα2-3GalβpNP]"
system = "SpNanA (sialidase) (Streptococcus pneumoniae, UniProt P62575)"
measurement_type = "inhibition at 8 µM"
unit_abbreviation = "%"
result = 10

[[record]]
molecule = "CC(=O)N[C@@H]1C(NC(=N)N)C[C@](OC2C(O)[C@H](Oc3ccc([N+](=O)[O-])cc3)OC(CO)[C@@H]2O)(C(=O)O)OC1[C@H](O)[C@H](O)CO (some centres unmarked) [4-Guanidino-Neu5Acα2-3GalβpNP]"
system = "SpNanA (sialidase) (Streptococcus pneumoniae, UniProt P62575)"
measurement_type = "inhibition at 8 µM"
unit_abbreviation = "%"
result = 0.2

